tested on: Malme-3M; assay: NCI tumour cell line growth inhibition, 48 h
Calls of active or inactive are those of the source. Cut-off read from the data, not from the text of the source: active = GI50 up to about 1.1 µM and inactive = higher.
test_readout: GI50

Entry Cn1c2c3ccccc3nc-2c(O)c2ccccc21 [HYDROXYCRYPTOLEPINE] : reported GI50 = ? > 100 µM (inactive)

Entry O=C1c2cc3ncsc3cc2C(=O)c2c(O)ccc(O)c21 : reported GI50 = ? > 100 µM (inactive)

Entry O=C(CC1(O)C(=O)Nc2ccccc21)c1cccc(O)c1 (stereo not given) : reported GI50 = ? > 100 µM (inactive)

Entry COC(=O)[C@@H]1C[C@H](c2ccc(OC)c(OC)c2)OC1=O.COC(=O)[C@H]1C[C@H](c2ccc(OC)c(OC)c2)OC1=O : reported GI50 = ? > 100 µM (inactive)

Entry Clc1cccc(/N=C/C=C/Nc2cccc(Cl)c2)c1 : reported GI50 = ? > 10 µM (inactive)

Entry Cc1ccc(N2C(=O)C3c4[nH]c5ccc(C)cc5c4C4CCC(C(C)(C)C)CC4C3C2=O)cc1 (stereo not given) : reported GI50 = ? 14 µM (inactive)

Entry CCC(=O)NC(OCC1(CC)COC1)(C(F)(F)F)C(F)(F)F : reported GI50 = ? > 100 µM (inactive)

Entry Cc1ccc(C)c(NC(=O)C(=O)Nn2c(S)nc3ccccc3c2=O)c1 : reported GI50 = ? > 100 µM (inactive)

Entry CCCO[C@@H]1[C@@H](OC(C)=O)[C@@H](OC(C)=O)C(C)(C)/C=C/[C@H](C)C(=O)[C@@]2(OC(C)=O)C[C@@](C)(OC(C)=O)[C@H](OC(C)=O)[C@@H]2[C@H]2OC(=O)CC[C@@]12OC(=O)c1ccccc1 : reported GI50 = ? 17.5 µM (inactive)

Entry CC(=O)OCC1=C(COC(C)=O)C(=O)c2c(O)ccc(O)c2C1=O : reported GI50 = ? 4.28 µM (inactive)

Entry O=C1Nc2ccccc2Nc2ccncc21 : reported GI50 = ? > 100 µM (inactive)

Entry CCCCc1c2c(nc3c1CCc1cc(C=O)c(N)nc1-3)/C(=C/c1ccccc1)CCC2 : reported GI50 = ? > 100 µM (inactive)

Entry C(=C\c1cc[n+](CCc2ccccc2)cc1)/c1ccccc1 : reported GI50 = ? 11.2 µM (inactive)

Entry C[S+]([O-])c1cc(=O)c2ccccc2s1 (stereo not given) : reported GI50 = ? 2.3 µM (inactive)

Entry Cc1nc(Nc2nc3ccccc3[nH]2)[nH]c(=O)c1CCO : reported GI50 = ? 25.6 µM (inactive)

Entry CC(C)(C)OC(=O)CN1CCNCCNCC1 : reported GI50 = ? > 100 µM (inactive)

Entry Clc1ccc2c(Cl)ncnc2c1I : reported GI50 = ? > 100 µM (inactive)

Entry COc1ccc(/C(=C/n2ccnc2)C(=O)c2ccc(OC)c(OC)c2)cc1 : reported GI50 = ? > 100 µM (inactive)

Entry CC(C)(C)c1ccc(OCCOCCOc2ccc(C(C)(C)C)cc2S(=O)(=O)Nc2ccc([N+](=O)[O-])cc2)c(S(=O)(=O)Nc2ccc([N+](=O)[O-])cc2)c1 : reported GI50 = ? 83.9 µM (inactive)

Entry CN1C(=O)C(C)(C)NS1(=O)=O : reported GI50 = ? > 100 µM (inactive)

Entry COc1cc(C2c3cc4c(c(O)c3C(=O)C3CCC(=O)N32)OCO4)cc(OC)c1OC (stereo not given) : reported GI50 = ? 39.9 µM (inactive)

Entry C/C(CN1C(=O)c2ccccc2C1=O)=N\NS(=O)(=O)c1ccc(C)cc1 : reported GI50 = ? > 100 µM (inactive)

Entry O=C(Nc1ccccc1[N+](=O)[O-])C(=O)C(C(=O)c1ccccc1-c1ccccc1)C1OC(=O)c2ccccc21 (stereo not given) : reported GI50 = ? 13 µM (inactive)

Entry CN1CCC(O)(C(C)(C)C)CC1 : reported GI50 = ? > 100 µM (inactive)

Entry CC12CC3(C)CC(C)(C1)CC(N=[N+]=[N-])(C2)C3 : reported GI50 = ? > 100 µM (inactive)

---

test system: CCRF-CEM; assay: NCI tumour cell line growth inhibition, 48 h
Activity calls are given as the source filed them. No stated cut-off is given here; in the data, active = GI50 up to about 1.1 µM and inactive = higher. Where a SMILES comes first, the peptide text is derived from it. The star is where a group is joined. Fmoc = O=C(OCC1c2ccccc2-c2ccccc21)*; Boc = CC(C)(C)OC(=O)*
Your response should consist of one outcome taken from True = active, False = inactive

Given C[n+]1c(-c2ccc(/C=N\N3CCN(/N=C/c4ccc(-c5cn6ccccc6[n+]5C)cc4)CC3)cc2)cn2ccccc21 , state the outcome it received in this test. False

Given NC(=S)N/N=C1\C(=O)Nc2c(Cl)cc(Cl)cc21 , state the outcome it received in this test. False

Given CC(C)(C)OC(=O)NCCCCC(NC(=O)OCC1c2ccccc2-c2ccccc21)C(=O)N1CCCC1C(=O)NCC(N)=O (stereo not drawn) (Fmoc-Lys(Boc)-Pro-Gly-NH2; configuration not given here) , state the outcome it received in this test. False

Given COC(=O)C1(Cc2ccc3c(c2)CCC3)Cc2cc3c(cc2C1)CCC3 , state the outcome it received in this test. False

Given CC(C)C[C@H](NC(=O)[C@H](Cc1cccc2ccccc12)NC(=O)N1CCOCC1)B(O)O , state the outcome it received in this test. True

Given CCCOc1ccc(/C=C\c2cc(OC)c(OC)c(OC)c2)cc1 , state the outcome it received in this test. False

Given COc1ccc(C2=C(Cl)c3cc(OC)c(OC)cc3C2Cl)cc1 (stereo not given) , state the outcome it received in this test. False

Given Cc1cc(C)c2c(n1)S(=O)(=O)N(CCCN1CCN(c3cccc(C(F)(F)F)c3)CC1)C(C(=O)c1ccccc1)=C2O , state the outcome it received in this test. False

Given O=C(Nc1ccccc1[N+](=O)[O-])C(=O)C(C(=O)c1ccccc1-c1ccccc1)C1OC(=O)c2ccccc21 (stereo not given) , state the outcome it received in this test. False

Given CCOC(=O)Cc1nc(/C(C#N)=C/c2ccco2)[nH]c(=O)c1C#N , state the outcome it received in this test. False

---

test system: LXFL 529; experiment: NCI tumour cell line growth inhibition, 48 h
Calls of active or inactive are those of the source. Rule as the data show it: active = GI50 up to about 1.1 µM and inactive = higher.
test_readout: GI50

Entry COc1ccc(OC)c(/C=N/N=C(\N)NO)c1 : reported GI50 = ? 4.57 µM (inactive)

Entry COc1cccc2c1C(=O)c1c(O)c3c(c(O)c1C2=O)C[C@@](O)(C(=O)CO)C[C@@H]3OC1CC(N)C(OC)C(C)O1 (stereo partly specified) : reported GI50 = ? 0.0776 µM (active)

Entry COc1ccc2oc3c(OC)c(OC)c(OC)cc3c(=O)c2c1 : reported GI50 = ? > 100 µM (inactive)

Entry OCc1nnn2c1CCC2 : reported GI50 = ? > 100 µM (inactive)

Entry CCC1=CCC(P(=O)(c2ccccc2)c2ccccc2)CC1C (stereo unspecified) : reported GI50 = ? 41.8 µM (inactive)

Entry CCCN(CCC)c1c([N+](=O)[O-])cc(C(=O)N(C)C)cc1[N+](=O)[O-] : reported GI50 = ? > 100 µM (inactive)

---

system: OVCAR-8; experiment: NCI tumour cell line growth inhibition, 48 h
The source made the active and inactive calls. Rule as the data show it: active = GI50 up to about 1.1 µM and inactive = higher.
Your response should consist of one outcome taken from Y for active, N for inactive

Given CN(C)CCCN1c2ccc3ccccc3c2Sc2cccc(Cl)c21 , state the outcome it received in this test. N

Given N=C(N)NCCCS(=O)(=O)Nc1ccc(Nc2c3ccccc3nc3cc([N+](=O)[O-])ccc23)cc1 , state the outcome it received in this test. N

Given CCCCc1c2c(nc3c1CCc1cc(C=O)c(N)nc1-3)/C(=C/c1ccccc1)CCC2 , state the outcome it received in this test. N

Given CCCCCCCCCCCCCCCC/C(C(=O)OC)=C(/O)C(=O)OCC , state the outcome it received in this test. N

Given S=c1sc2cscc2s1 , state the outcome it received in this test. N

Given CN(C)c1ccc(/C=C/C=c2/c3ccccc3n3c2cc(-c2ccccc2)[n+]3C)cc1 , state the outcome it received in this test. Y

Given CN(C)CCOc1ccc(-c2c(Oc3ccccc3)c(=O)oc3ccccc23)cc1 , state the outcome it received in this test. N

Given C[C@]12CCC(=O)C(O)=C1CC[C@@H]1C2CC[C@]2(C)NC(=O)CCC12 (stereo partly specified) , state the outcome it received in this test. N

Given COc1ccc(C2=C(Cl)c3cc(OC)c(OC)cc3C2Cl)cc1 (stereo unspecified) , state the outcome it received in this test. N

Given O=C(NNC(c1ccccc1)C(F)(F)F)c1ccncc1 (stereo unspecified) , state the outcome it received in this test. N

Given O=C(O)C1(Nc2ccc(Cl)cc2)CCCC1 , state the outcome it received in this test. N

Given O=C(Nc1nc2ncn(CCNCc3ccccc3)c2c(=O)[nH]1)c1ccccc1 , state the outcome it received in this test. N

Given NC(=S)N/N=C1\C(=O)Nc2c(Cl)cc(Cl)cc21 , state the outcome it received in this test. N

Given COc1cc2c3cc1Oc1c(OC)c(OC)cc4c1C(=NCC4)Cc1ccc(cc1)Oc1cc(ccc1O)C[C@H]3N(C)CC2 , state the outcome it received in this test. N

Given COC(=O)C1(C(=O)OC)Cc2ccc(OC)cc2C2=C1C(=O)c1ccccc1C2=O , state the outcome it received in this test. N

Given Cc1c(Cl)cccc1NC(=O)C(=O)c1c(O)c2ccc(O)cc2oc1=O , state the outcome it received in this test. N

Given Cc1ccccc1NC(=O)C(=O)C(C(=O)c1ccccc1F)C1OC(=O)c2ccccc21 (stereo unspecified) , state the outcome it received in this test. N

Given Oc1c(-c2ccccc2)sc2ccccc12 , state the outcome it received in this test. N

Given Cc1ccc(C)c(NC(=O)C(=O)Nn2c(S)nc3ccccc3c2=O)c1 , state the outcome it received in this test. N

Given COC(=O)[C@@H]1C[C@H](c2ccc(OC)c(OC)c2)OC1=O.COC(=O)[C@H]1C[C@H](c2ccc(OC)c(OC)c2)OC1=O , state the outcome it received in this test. N

Given CCOc1ccccc1/N=N/c1c(-c2ccccc2)nn(C(=O)CC(=O)Nc2cccc(Cl)c2)c1-c1ccccc1 , state the outcome it received in this test. N

Given CCOC(=O)c1nc2ccc(C(F)(F)F)cc2nc1Nc1ccc(Cl)c(Cl)c1 , state the outcome it received in this test. N

Given C(=C\c1cc[n+](CCc2ccccc2)cc1)/c1ccccc1 , state the outcome it received in this test. N

Given CCN(CC)CCSc1nc2c(c(=N)n1-c1ccccc1)c(=S)n(-c1ccccc1)c(=S)n2-c1ccccc1 , state the outcome it received in this test. N

Given COc1cccc2cc(C(N)=O)c(=N)oc12 , state the outcome it received in this test. N

Given COc1cccc2c1C(=O)c1c(O)c3c(c(O)c1C2=O)C[C@@](O)(C(=O)CO)C[C@@H]3OC1CC(N)C(OC)C(C)O1 (stereo partly specified) , state the outcome it received in this test. Y

Given Oc1c(C(O)c2ccccn2)ccc2ccccc12 (stereo unspecified) , state the outcome it received in this test. N

Given CC1=NN(c2nc(N)nc(/C(C#N)=C\c3ccc(-c4ccc([N+](=O)[O-])cc4)o3)n2)C(C)(C)C1 , state the outcome it received in this test. N

Given C#CC1(O)CCC2C3CCc4cc(Oc5nc(F)nc(-c6c7ccccc7c7sc8ccccc8n67)n5)ccc4C3CC[C@@]21C (stereo partly specified) , state the outcome it received in this test. N

Given COC(=O)C(Cc1c[nH]c2ccccc12)NC(=O)c1ccc(-c2ccc(Cl)cc2Cl)o1 (stereo unspecified) , state the outcome it received in this test. N

Given CCOC(=O)C(C)(c1cn(C)c2ccccc12)c1cn(C)c2ccccc12 , state the outcome it received in this test. N

Given Oc1nc(-c2ccccc2)cc(-c2ccccc2O)n1 , state the outcome it received in this test. N

Given O=[N+]([O-])/C(C(Cl)=C(Cl)Cl)=C(/Nc1ccccc1)Sc1ccccc1 , state the outcome it received in this test. N

Given O=C1c2cccc3cccc(c23)C(=O)N1CCCNCCCNCCCCNCCCNCCCN1C(=O)c2cccc3cccc(c23)C1=O , state the outcome it received in this test. N

Given Oc1ccc2occ3c2c1CCC3 , state the outcome it received in this test. N

Given OCc1ccn2c1[C@@H](O)CC2 , state the outcome it received in this test. N

Given Cc1cc2c(=O)cc(-c3ccc(Cl)c(Cl)c3)oc2c(C(=O)O)c1C , state the outcome it received in this test. N

Given Nc1nc(N)c(CCCCc2ccccc2)c(N)n1 , state the outcome it received in this test. N

Given Cc1cc(C)nc(NS(=O)(=O)c2ccc(Nc3c4ccccc4nc4c(C(=O)Nc5ccc(S(N)(=O)=O)cc5)cccc34)cc2)n1 , state the outcome it received in this test. N

Given CN(C)CCNc1ccc2nnn3c4ccc(Cl)cc4c(=O)c1c23 , state the outcome it received in this test. N

Given COc1ccc(/C=C/c2cc(=O)cc(/C=C/c3ccc(OC)c(O)c3)o2)cc1O , state the outcome it received in this test. N

Where do the numbers come from? From ChEMBL document CHEMBL1201862.
